// melting point lookup, one value per entry

Consider the worked cases shown below.
> print(dat)
                              molecule    assay.value
1      Nc1ccc(CC(=O)N2CCCc3ccccc32)cc1  141 to 143 °C
2                  CC(C)(O)c1ccc(O)cc1  104 to 106 °C
3  COC(=O)c1ccc(CNc2ccc3c[nH]nc3c2)cc1  152 to 154 °C

# melting point (molecule: CCC(c1ccc(Br)cc1)N1CCNCC1 (stereo unspecified) ) is 65 to 67 °C

# melting point (molecule: `NS(=O)(=O)c1cccc(NC(=O)c2ccc(C(=O)O)s2)c1` ) is 308 to 310 °C

# melting point (molecule: `COc1cc(C(=O)O)ccc1NN` ) is 149 to 151 °C

Data credit: a melting point compilation (Tetko et al.)
